# Lookup of reported pIC50 keyed by entry
biological target: PTPN11-E76K mutant enzyme (Homo sapiens (Human), UniProt Q06124, E76K); assay: PTPN11 Enzymatic Assay (DiFMUP phosphatase activity); type: biochemical; details: full length PTPN11-E76K mutant enzyme 250 pM, DiFMUP 50 μM, 30 min preincubation; read-out: PTPN11-E76K Avg IC50
Sequence (Q06124 whole entry E76K): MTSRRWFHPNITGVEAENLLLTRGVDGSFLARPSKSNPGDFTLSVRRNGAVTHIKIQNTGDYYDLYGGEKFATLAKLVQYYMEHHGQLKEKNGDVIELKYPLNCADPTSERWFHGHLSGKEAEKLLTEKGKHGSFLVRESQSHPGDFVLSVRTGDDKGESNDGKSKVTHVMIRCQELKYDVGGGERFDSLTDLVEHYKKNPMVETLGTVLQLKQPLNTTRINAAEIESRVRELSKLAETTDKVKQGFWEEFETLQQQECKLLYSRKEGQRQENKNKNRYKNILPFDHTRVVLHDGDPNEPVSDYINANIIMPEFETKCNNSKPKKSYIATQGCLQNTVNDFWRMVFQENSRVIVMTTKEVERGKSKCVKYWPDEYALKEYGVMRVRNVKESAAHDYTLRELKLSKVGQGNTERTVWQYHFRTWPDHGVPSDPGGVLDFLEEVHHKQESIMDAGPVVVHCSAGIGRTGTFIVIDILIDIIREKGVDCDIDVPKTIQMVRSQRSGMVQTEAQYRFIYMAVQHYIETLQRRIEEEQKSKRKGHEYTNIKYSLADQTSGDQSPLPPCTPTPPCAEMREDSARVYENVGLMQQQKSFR
pIC50 field: float, defined as -log10 of concentration (mol/L).

These solved cases illustrate the format of a correct answer.
> print(dat)
                           structure.string  measurement.kind  assay.value
1  N[C@@H]1CCCC12CCN(c1cnc3c(-c4cc(Cl)cc(Cl)c4)n[nH]c3n1)CC2             pIC50         6.45
2  NC1(CO)CCN(c2cnc3c(-c4ccnc(O)c4Cl)n[nH]c3n2)CC1             pIC50         5.43

Challenge: Return reported pIC50; argument: Nc1cccc(-c2n[nH]c3nc(N4CCC5(CCC[C@H]5N)CC4)cnc23)c1Cl
Response given: 7.08

---

system: Phospho-ERK levels in KYSE-520 cells; assay: pERK AlphaScreen Protocol; format: cell-based; conditions: Homo sapiens, KYSE-520, 2 h, KYSE-520 cells, 2 hr compound incubation, phospho-ERK1/2 AlphaScreen SureFire; read-out: PERK Avg IC50
Measurement kind: IC50 (µM)
Give the quantity in µM, number only.

> print(dat)
                           structure.string  assay.value
1  N[C@@H]1COCC12CCN(c1cnc3c(-c4cccc(F)c4Cl)n[nH]c3n1)CC2        0.063
2  N[C@@H]1CCCC12CCN(c1cnc3c(-c4ccc(Cl)cc4)n[nH]c3n1)CC2        0.082
3  CC1(N)CCN(c2cnc3c(-c4ccc(Cl)c(Cl)c4)n[nH]c3n2)CC1        0.667
4  Nc1cccc(-c2n[nH]c3nc(N4CCC5(CCC[C@H]5N)CC4)cnc23)c1Cl        0.035

Challenge: Short answer please: IC50, Phospho-ERK levels in KYSE-520 cells, entry COc1cc(-c2n[nH]c3nc(N4CCC(C)(CN)CC4)cnc23)ccc1Cl
Response given: 0.096

Challenge: Lab note: need IC50 with Phospho-ERK levels in KYSE-520 cells for entry CC1(N)CCN(c2cnc3c(-c4cc(N)ncc4Cl)n[nH]c3n2)CC1 , please look it up.
Response given: 0.406

Challenge: Please state recorded IC50 (tested on Phospho-ERK levels in KYSE-520 cells) of CC1(N)CCN(c2cnc3c(-c4c(F)cccc4Cl)n[nH]c3n2)CC1
Response given: 0.284

Challenge: Test system Phospho-ERK levels in KYSE-520 cells; read-out IC50; what value for CC1(CN)CCN(c2cnc3c(-c4cc(Cl)cc(Cl)c4)n[nH]c3n2)CC1 ?
Response given: 1.17

---

test system: Phospho-ERK levels in KYSE-520 cells; assay: pERK AlphaScreen Protocol; format: cell-based; details: Homo sapiens, KYSE-520, 2 h, KYSE-520 cells, 2 hr compound incubation, phospho-ERK1/2 AlphaScreen SureFire; read-out: PERK Avg IC50
Measurement kind: IC50
# answer = value followed by unit

> print(dat)
                                   compound  assay.value
1  N[C@@H]1COCC12CCN(c1cnc3c(-c4cccc(Cl)c4Cl)n[nH]c3n1)CC2 [Example 38]        40 nM
2  Cc1ncccc1-c1n[nH]c2nc(N3CCC(C)(CN)CC3)cnc12 [Example 30]      1600 nM
3  NCC1(O)CCN(c2cnc3c(-c4ccnc(N)c4Cl)n[nH]c3n2)CC1 [Example 114]      2490 nM
4  CC1(CN)CCN(c2cnc3c(-c4ccncc4Cl)n[nH]c3n2)CC1 [Example 31]       710 nM
5  CC1(CN)CCN(c2cnc3c(-c4ccc(Cl)c(Cl)c4)n[nH]c3n2)CC1 [Example 13]       562 nM
6  CC1(N)CCN(c2cnc3c(-c4cccc(Cl)c4)n[nH]c3n2)CC1 [Example 10]       172 nM
7  CC1(CN)CCN(c2cnc3c(-c4cccc(N)c4Cl)n[nH]c3n2)CC1 [Example 132]        63 nM
8  NCC1(O)CCN(c2cnc3c(-c4ccnc(O)c4Cl)n[nH]c3n2)CC1 [Example 120]      9700 nM

Alright, here's another compound for you.
Challenge: # query: IC50 of entry N[C@@H]1CCCC12CCN(c1cnc3c(-c4cccnc4Cl)n[nH]c3n1)CC2 [Example 53]
Response given: 224 nM

---

Reported pIC50 is given for each of the following compounds.
target: PTPN11-E76K mutant enzyme (Homo sapiens (Human), UniProt Q06124, E76K); assay: PTPN11 Enzymatic Assay (DiFMUP phosphatase activity); type: biochemical; conditions: full length PTPN11-E76K mutant enzyme 250 pM, DiFMUP 50 μM, 30 min preincubation; read-out: PTPN11-E76K Avg IC50
In simple prose, pIC50 is minus the logarithm base ten of a concentration in moles per litre.

Example results:
> print(dat)
                                   compound  measurement.kind  assay.value
1  N[C@@H]1CCCC12CCN(c1cnc3c(-c4cccc(C(F)(F)F)c4)n[nH]c3n1)CC2 [Example 48]             pIC50         5.76
2  CC1(CN)CCN(c2cnc3c(-c4cccnc4Cl)n[nH]c3n2)CC1 [Example 36]             pIC50         6.01
3  CC1(CN)CCN(c2cnc3c(-c4cccc(Cl)c4F)n[nH]c3n2)CC1 [Example 25]             pIC50         7.00
4  CC1(N)CCN(c2cnc3c(-c4cccc(Cl)c4F)n[nH]c3n2)CC1 [Example 26]             pIC50         6.67
5  NCC1(O)CCN(c2cnc3c(-c4cc(N)ncc4Cl)n[nH]c3n2)CC1 [Example 134]             pIC50         5.81

Challenge: Need pIC50 of N[C@@H]1CCCC12CCN(c1cnc3c(-c4cn[nH]c4C(F)(F)F)n[nH]c3n1)CC2 [Example 102] , thanks.
Response given: 5.67

---

Molecular target: PTPN11-E76K mutant enzyme (Homo sapiens (Human), UniProt Q06124, E76K)
Assay: PTPN11 Enzymatic Assay (DiFMUP phosphatase activity)
Assay type: biochemical
Details: full length PTPN11-E76K mutant enzyme 250 pM, DiFMUP 50 μM, 30 min preincubation; read-out: PTPN11-E76K Avg IC50
Experimental: Reaction was initiated by addition of DiFMUP (50 μM) at room temperature in 384-well black plate with a final reaction volume of 20 uL in assay buffer. […] Dose-response curves were analyzed using IC50 regression curve fitting (GeneData Screener). Curves were normalized to a high controls without inhibitor, and low controls without enzyme.
The label is satisfied for IC50 below 0.4 µM and not satisfied for IC50 equal to or exceeding 0.4 µM.

> print(dat)
                           structure.string                           measured.target          group
1  CC1(CN)CCN(c2cnc3c(-c4ccc(F)c(Cl)c4)n[nH]c3n2)CC1  PTPN11-E76K mutant enzyme (Homo sapiens (Human), UniProt Q06124, E76K)  not satisfied
2  Cc1c(-c2n[nH]c3nc(N4CCC(C)(CN)CC4)cnc23)ccnc1N  PTPN11-E76K mutant enzyme (Homo sapiens (Human), UniProt Q06124, E76K)      satisfied
3  COc1cc(-c2n[nH]c3nc(N4CCC(C)(CN)CC4)cnc23)ccc1Cl  PTPN11-E76K mutant enzyme (Homo sapiens (Human), UniProt Q06124, E76K)      satisfied

Challenge: Field: below-cutoff. Rule: recorded IC50 strictly less than 0.4 µM. Subject: NC1(CO)CCN(c2cnc3c(-c4cccc(Cl)c4Cl)n[nH]c3n2)CC1
Response given: satisfied

Challenge: Consider CC1(N)CCN(c2cnc3c(-c4ccc(F)c(Cl)c4)n[nH]c3n2)CC1 . Does its IC50 lie strictly below 0.4 µM?
Response given: not satisfied

Challenge: In plain terms, does CC1(N)CCN(c2cnc3c(-c4ccccc4Cl)n[nH]c3n2)CC1 come in under 0.4 µM for IC50?
Response given: satisfied

---

Below, each entry is listed with its recorded IC50.
test system: Phospho-ERK levels in KYSE-520 cells; experiment: pERK AlphaScreen Protocol; type: cell-based; conditions: Homo sapiens, KYSE-520, 2 h, KYSE-520 cells, 2 hr compound incubation, phospho-ERK1/2 AlphaScreen SureFire; read-out: PERK Avg IC50
# output: bare number, implied unit nM

Some solved entries appear below for comparison.
> print(dat)
                                   compound  assay.value
1  N[C@@H]1CCCC12CCN(c1cnc3c(-c4cccc(Cl)c4)n[nH]c3n1)CC2 [Example 44]          304
2  NC1(CO)CCN(c2cnc3c(-c4cccc(Cl)c4Cl)n[nH]c3n2)CC1 [Example 57]           53
3  CC1(CN)CCN(c2cnc3c(-c4cc(N)ncc4Cl)n[nH]c3n2)CC1 [Example 133]          533

Challenge: IC50 for Nc1cc(-c2n[nH]c3nc(N4CCC5(CC4)COC[C@H]5N)cnc23)c(Cl)cn1 [Example 137] ?
Response given: 1030

Challenge: Consider the compound shown here: CC1(CN)CCN(c2cnc3c(-c4ccnc(N)c4Cl)n[nH]c3n2)CC1 [Example 107] What is its recorded IC50?
Response given: 246

Challenge: Returns the measured IC50 for the input compound. Input: CC1(N)CCN(c2cnc3c(-c4cn[nH]c4C(F)(F)F)n[nH]c3n2)CC1 [Example 101]
Response given: 638

Challenge: I have this compound here, N[C@@H]1COCC12CCN(c1cnc3c(-c4c(F)cccc4Cl)n[nH]c3n1)CC2 [Example 40] , and I need its recorded IC50.
Response given: 186

Challenge: Entry under review: CC1(CN)CCN(c2cnc3c(-c4ccccc4Cl)n[nH]c3n2)CC1 [Example 29] . Reported IC50?
Response given: 87
